# Species: Rattus norvegicus
# experimental.protocol: Potentiation of AMPA receptor mediated KA-induced current in Sprague-Dawley rat primary cerebellar granule neurons at 200 uM
measured.property: Activity (%)

P. Nc1ccccc1S(N)(=O)=O
Q. CNc1ccc(Cl)cc1S(N)(=O)=O
R. CNS(=O)(=O)c1cc(Cl)ccc1N
S. CC(C)Nc1ccc(Cl)cc1S(N)(=O)=O
Exercise: Task for the reader: place the molecules above in descending order according to recorded Activity. # the answer lists labels in the order requested
Solution: Q, S, R, P
(Q: 69%, S: 32%, R: 5%, P: -5%)
